Taken from patent US9688764B2.

# % Kill annotations
Tested on: MCF7 (MCF7/ATCC) cells
PROTOCOL TEXT: Cell viability (cell kill) assay, nuclear counts
Type: cell-based
EXPERIMENTAL CONTEXT: MCF7/ATCC; Table 20
MEASUREMENT KIND: % Kill (%)

molecule="H1H6953N-SMCC-DM1 (conjugate) VH: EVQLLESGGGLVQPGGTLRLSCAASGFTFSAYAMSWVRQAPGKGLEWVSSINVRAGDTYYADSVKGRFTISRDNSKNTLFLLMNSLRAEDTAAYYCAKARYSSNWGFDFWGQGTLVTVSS VL: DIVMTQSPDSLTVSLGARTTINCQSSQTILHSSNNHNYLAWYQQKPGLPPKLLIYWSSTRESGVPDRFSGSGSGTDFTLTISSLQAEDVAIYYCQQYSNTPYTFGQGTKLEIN" measurement_kind="% Kill" unit_of_measure=% reported_measurement=70
molecule="H1H6958N2-mc-VC-PAB-MMAE (conjugate) VH: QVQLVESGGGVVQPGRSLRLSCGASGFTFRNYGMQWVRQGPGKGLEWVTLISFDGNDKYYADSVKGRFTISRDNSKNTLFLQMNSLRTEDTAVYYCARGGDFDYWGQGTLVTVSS VL: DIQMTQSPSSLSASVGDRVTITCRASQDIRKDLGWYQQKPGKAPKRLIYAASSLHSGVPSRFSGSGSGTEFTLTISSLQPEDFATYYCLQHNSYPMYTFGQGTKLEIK" measurement_kind="% Kill" unit_of_measure=% reported_measurement=50
molecule="H1H6765P-SMCC-DM1 (conjugate) VH: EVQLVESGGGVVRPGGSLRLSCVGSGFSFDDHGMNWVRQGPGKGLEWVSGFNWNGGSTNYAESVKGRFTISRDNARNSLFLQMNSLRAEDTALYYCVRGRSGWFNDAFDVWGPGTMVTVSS VL: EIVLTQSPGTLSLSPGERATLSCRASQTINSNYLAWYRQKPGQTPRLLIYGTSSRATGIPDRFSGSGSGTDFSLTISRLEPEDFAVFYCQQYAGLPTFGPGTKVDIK" measurement_kind="% Kill" unit_of_measure=% reported_measurement=70
molecule="H1H6975P-SMCC-DM1 (conjugate) VH: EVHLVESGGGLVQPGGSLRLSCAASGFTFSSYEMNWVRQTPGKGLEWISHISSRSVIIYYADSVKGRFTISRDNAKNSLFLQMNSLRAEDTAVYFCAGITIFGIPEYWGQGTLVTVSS VL: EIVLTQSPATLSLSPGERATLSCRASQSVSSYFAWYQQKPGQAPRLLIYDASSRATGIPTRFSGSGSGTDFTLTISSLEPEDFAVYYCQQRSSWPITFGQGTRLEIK" measurement_kind="% Kill" unit_of_measure=% reported_measurement=70
molecule="H1H6953N-mc-VC-PAB-MMAE (conjugate) VH: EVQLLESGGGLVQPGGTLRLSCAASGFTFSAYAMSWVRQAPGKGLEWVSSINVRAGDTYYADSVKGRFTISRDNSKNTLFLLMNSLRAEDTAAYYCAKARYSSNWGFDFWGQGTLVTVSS VL: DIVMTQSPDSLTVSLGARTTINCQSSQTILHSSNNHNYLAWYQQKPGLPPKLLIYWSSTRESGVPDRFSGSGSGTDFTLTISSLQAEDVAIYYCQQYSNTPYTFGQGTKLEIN" measurement_kind="% Kill" unit_of_measure=% reported_measurement=40
